- Tested on: NCI-H226 lung
- Assay Protocol: NCI tumour cell line growth inhibition, 48 h
Readout: TGI

Example cases with answers are listed next.
Molecule	Target	TGI
Cc1[nH]c(=O)nc(NCCNCCO)c1C(=O)Nc1cccc2cc3ccccc3cc12	NCI-H226 lung	> 100 µM
COc1cc(C(c2c(O)c3ccccc3oc2=O)c2c(O)c3ccccc3oc2=O)cc(Br)c1O	NCI-H226 lung	49.1 µM
COC(=O)C1C(C(=O)OC)C2(OC(c3ccc(Cl)cc3)=CC2=O)C12OC(c1ccc(Cl)cc1)=CC2=O (stereo not drawn)	NCI-H226 lung	> 100 µM

Working through the 8 molecules below one at a time, give TGI for each.
1. COC(=O)/C(=N\NC(C)(C)C)C(C(=O)C(=O)Nc1cc(C)ccc1C)c1nc2ccccc2[nH]c1=O (stereo not drawn)
2. C=C1C(OC2O[C@@H]3O[C@@]4(C)CC[C@H]5[C@H](C)CC[C@@H](C2=C)[C@@]35O4)O[C@@H]2O[C@@]3(C)CC[C@H]4[C@H](C)CC[C@@H]1[C@@]24O3 (stereo partly drawn)
3. C=C1N(C=O)C(C)(C)N(O)C1(C)C
4. CC(C)N1CC2CC(CN(C(=O)c3ccccc3)C2)C1
5. Cc1cc2c(cc1C)N(C(=O)CCl)CCN2C(=O)CCl
6. COc1ccc(-c2oc3c(OC)c(OC)c(OC)c(OC)c3c(=O)c2OC)cc1OC
7. COc1ccccc1CN=C1Nc2ccncc2S(=O)(=O)N1c1ccccc1
8. CCC(CO)Nc1nc(NCc2ccccc2)c2ncn(C(C)C)c2n1 (stereo not drawn)

## Result
1: > 100 µM; 2: > 50 µM; 3: > 100 µM; 4: > 100 µM; 5: 1.8 µM; 6: > 100 µM; 7: > 100 µM; 8: 39.4 µM

Would you mind giving TGI for every molecule in the list below?
1. CC(C)(C)OC(=O)NC(Cc1ccccc1)NC(=O)NC(=O)OCc1ccccc1 (stereo not drawn)
2. O=[N+]([O-])c1ccc(NC(=S)N=Nc2c(O)[nH]c3ccc([N+](=O)[O-])cc23)cc1
3. COC(=O)c1nc(Cl)nc(Cl)c1Cl
4. COC(=O)[C@]12CCC(C)[C@H](C)[C@H]1C1=CCC3[C@@]4(C)CC[C@H](OC(C)=O)C(C)(C)C4CC[C@@]3(C)C1(C)C(O)C2 (stereo partly drawn)
5. CO[C@H]1SC[C@H](OC(C)=O)[C@H](OC(C)=O)[C@H]1OC(C)=O
6. Cc1cc2c(O)c(c1)CN(CC(=O)O)Cc1cc(C)cc(c1O)CN(CC(=O)O)Cc1cc(C)cc(c1O)CN(CC(=O)O)C2

## Result
> 100 µM
86.5 µM
64.4 µM
83.1 µM
> 100 µM
> 100 µM

For every listed record, write down its TGI.
1. N#CC1(O)CCCCCCCCCCC1
2. NC(=S)NNc1c([N+](=O)[O-])cnn(-c2ccccc2)c1=O
3. COc1ccc2c(c1)/C(=C\c1c(Cl)[nH]c3ccc(OC)cc13)C(=O)N2
4. O=C(CCc1cc(O)cc(O)c1)NCCCNC(=O)CCc1cc(O)cc(O)c1
5. COc1ccc(-c2ccc(-c3ccc(C(=N)N)cn3)o2)cc1
6. CC(CCC(=O)O)C(=O)O (stereo not drawn)

## Result
1: > 100 µM; 2: 35 µM; 3: > 100 µM; 4: > 100 µM; 5: 29.5 µM; 6: > 100 µM
